# procedure.text: Partition coefficient, logP of compound
# Type: physicochemical
# condition.context: octanol/water
Classes (logP): lower (below 6), middle (6 to below 7), upper (7 or more)

Query: Hi there! Could you help me figure out the category for CC1(C)C(/C=C/C2=C(Cl)C(=C/C=C3/N(Cc4ccc(C(=O)O)cc4)c4ccc(N)cc4C3(C)C)/CCC2)=[N+](Cc2ccc(C(=O)O)cc2)c2ccc(N)cc21 please?
Reply: lower

Query: For CC1(C)C(/C=C/C2=C(Cl)C(=C/C=C3/N(CCCOc4ccc(C(=O)O)cc4)c4ccc5ccccc5c4C3(C)C)/CCC2)=[N+](CCCOc2ccc(C(=O)O)cc2)c2ccc3ccccc3c21.[Br-] , which logP bin applies?
Reply: upper

Query: Just checking, what class would you give COC(=O)C(C)NC(=O)CCN1/C(=C/C=C2\CCCC(/C=C/C3=[N+](CCC(=O)NC(C)C(=O)OC)c4ccccc4C3(C)C)=C2Cl)C(C)(C)c2ccccc21 (stereo not given) here?
Reply: lower

Query: Which bin should I file CC1(C)C(/C=C/C=C/C=C/C=C2/N(CCCOc3ccc(C(=O)O)cc3)c3ccc4ccccc4c3C2(C)C)=[N+](CCCOc2ccc(C(=O)O)cc2)c2ccc3ccccc3c21.[Br-] under?
Reply: upper

Query: Note: place this molecule into its band. Item: CCCN1/C(=C/C=C2\CCCC(/C=C/C3=[N+](CCCOc4ccc(C(=O)O)cc4)c4ccccc4C3(C)C)=C2Cl)C(C)(C)c2ccccc21.[Br-]
Reply: middle

Query: Pick a category. Item: COC(=O)CNC(=O)c1ccc(CN2/C(=C/C=C3\CCCC(/C=C/C4=[N+](Cc5ccc(C(=O)NCC(=O)OC)cc5)c5ccc6ccccc6c5C4(C)C)=C3Cl)C(C)(C)c3c2ccc2ccccc32)cc1.[Br-]
Reply: upper

Others:
Query: Would you mind sorting Cc1ccc2c(c1)C(C)(C)C(/C=C/C1=C(Cl)C(=C/C=C3/N(CCCOc4ccc(C(=O)O)cc4)c4ccc(C)cc4C3(C)C)/CCC1)=[N+]2CCCOc1ccc(C(=O)O)cc1.[Br-] into the appropriate category?
Reply: middle

Query: Which of the defined bands does the recorded logP of COC(=O)CNC(=O)c1ccc(OCCCN2/C(=C/C=C3\CCCC(/C=C/C4=[N+](CCCOc5ccc(C(=O)NCC(=O)OC)cc5)c5ccc6ccccc6c5C4(C)C)=C3Cl)C(C)(C)c3c2ccc2ccccc32)cc1.[Br-] sit within?
Reply: upper

Query: For the record CC1(C)C(/C=C/C2=C(Cl)C(=C/C=C3/N(CCOc4ccccc4C(=O)O)c4ccc5ccccc5c4C3(C)C)/CCC2)=[N+](CCOc2ccccc2C(=O)O)c2ccc3ccccc3c21 , report the class its logP corresponds to.
Reply: upper
